The measurements presented in this section are drawn from PubChem BioAssay.

Molecular target: Streptavidin (Streptomyces avidinii) (UniProt P22629)
Sequence (P22629 whole entry, looked up): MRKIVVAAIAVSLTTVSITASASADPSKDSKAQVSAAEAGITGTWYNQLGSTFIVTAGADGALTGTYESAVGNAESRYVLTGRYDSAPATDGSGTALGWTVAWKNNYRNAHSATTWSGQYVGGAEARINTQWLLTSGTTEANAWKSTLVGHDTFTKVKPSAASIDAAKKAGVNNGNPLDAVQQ
Experiment: streptavidin binders on small-molecule microarray, primary screen, artefact control for SMM compound annotation, biophysical, 635/667 nm fluorescence (AID 1147);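 further: signal reflects streptavidin binding to arrayed compounds as a control protein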
Conditions: streptavidin binding, higher = more signal
endpointName: composite z-score

>  <compound>
O=C1C2C=CC(C(O)c3c(F)cccc3Cl)N(Nc3ccccc3)C2C(=O)N1c1ccccc1 (configuration not stated)

>  <valueMeasured>
1.1

$$$$
>  <compound>
CC(C)(C)OC(=O)CC[C@]12N=C(c3ccc(OCCCO)cc3)O[C@H]1c1ccccc1N(CCS(=O)(=O)c1ccccc1)C2=O

>  <valueMeasured>
0.579

$$$$
>  <compound>
COc1cc2c(cc1O)C=[N+](Cc1cccc(OC(F)(F)F)c1)CC2

>  <valueMeasured>
-0.535

$$$$
>  <compound>
Cc1ccc(C(C)CC(O)C2C=CC3C(=O)N(C)C(=O)C3N2NC(=O)OC(C)(C)C)o1 (configuration not stated)

>  <valueMeasured>
1.22

$$$$
>  <compound>
COc1cc2c(cc1OC)CN(C(=O)[C@H]1[C@@H]3C(=O)O[C@@H](c4ccccc4)[C@@H](c4ccccc4)N3[C@@H](c3ccc(O)cc3)[C@]13C(=O)Nc1ccc(C#CCNC(N)=O)cc13)CC2

>  <valueMeasured>
-0.283

$$$$
>  <compound>
O=C1O[C@H](c2ccccc2)[C@H](c2ccccc2)N2[C@H]1[C@@H](C(=O)Nc1nc3ccccc3s1)[C@]1(C(=O)Nc3ccc(C#CC4(O)CCCCCC4)cc31)[C@H]2c1ccc(OCCO)cc1

>  <valueMeasured>
1.18

$$$$
>  <compound>
CC(=O)n1cc(C(O)C2C=CC3C(=O)N(C)C(=O)C3N2Nc2ccccc2)c2ccccc21 (configuration not stated)

>  <valueMeasured>
1.13

$$$$

---

Target: Alpha-bungarotoxin (Bungarus multicinctus)
Assay: alpha-bungarotoxin binders on microarray, profiling panel, artefact control for SMM control protein annotation, biochemical, small-molecule microarray, Alexa647 label, 635/667 nm fluorescence (AID 1117)
Conditions: alpha-BTX-A647 binding fluorescence, higher = more signal

>  <molecule>
COc1ccc(C(O)C2C=CC3C(=O)NC(=O)C3N2Nc2ccccn2)c2ccccc12 (stereo not given)

>  <measurementTarget>
Alpha-bungarotoxin (Bungarus multicinctus)

>  <composite z-score>
0.172

$$$$
>  <molecule>
O=C1O[C@H](c2ccccc2)[C@H](c2ccccc2)N2[C@H]1[C@@H](C(=O)N1CCN(c3ncccn3)CC1)[C@]1(C(=O)Nc3ccc(C#CC4=CCCCC4)cc31)[C@H]2c1ccc(O)cc1

>  <measurementTarget>
Alpha-bungarotoxin (Bungarus multicinctus)

>  <composite z-score>
1.44

$$$$
>  <molecule>
COc1ccc(COC2OC[C@]3(C)[C@H]4C5=C(CN3C(=O)OC(C)(C)C)[C@H](C)C(CO)C(CO)C5CC[C@@H]24)cc1 (stereo not given in full)

>  <measurementTarget>
Alpha-bungarotoxin (Bungarus multicinctus)

>  <composite z-score>
0.608

$$$$
>  <molecule>
OC([C@@H]1CC(c2ccccc2)=NO1)[C@H]1CC(c2ccccc2)=NO1 (stereo not given in full)

>  <measurementTarget>
Alpha-bungarotoxin (Bungarus multicinctus)

>  <composite z-score>
-0.0544

$$$$
>  <molecule>
CC[C@@H]1C=C(C(=O)O)[C@H](c2ccco2)N1S(=O)(=O)c1ccc(C)cc1

>  <measurementTarget>
Alpha-bungarotoxin (Bungarus multicinctus)

>  <composite z-score>
0.396

$$$$
>  <molecule>
Cc1ccc(S[C@]2(C(=O)NCCN3CCOCC3)CC(=O)N(Cc3ccccc3)[C@@H]2c2ccc(CO)cc2I)cc1

>  <measurementTarget>
Alpha-bungarotoxin (Bungarus multicinctus)

>  <composite z-score>
-1.07

$$$$
>  <molecule>
COCC(=C=CC[C@H](O)c1ccccc1OCCO)C[C@H](O)c1cc(Cl)cc(Cl)c1O

>  <measurementTarget>
Alpha-bungarotoxin (Bungarus multicinctus)

>  <composite z-score>
1.08

$$$$
>  <molecule>
[N-]=[N+]=NCc1ccccc1C[C@]1(C(=O)NCC(O)CO)N=C(c2ccc(OCCCO)cc2)O[C@H]1c1ccccc1 (stereo not given in full)

>  <measurementTarget>
Alpha-bungarotoxin (Bungarus multicinctus)

>  <composite z-score>
0.19

$$$$
>  <molecule>
O=C1C2C=CC(C(O)c3c(F)cccc3Cl)N(Nc3ccccc3)C2C(=O)N1c1ccccc1 (stereo not given)

>  <measurementTarget>
Alpha-bungarotoxin (Bungarus multicinctus)

>  <composite z-score>
0.933

$$$$
>  <molecule>
CC(C)C(CO)N1C(=O)[C@@H]2[C@H]3C(=O)OCC=C[C@H]3OC23C=CCN(C(C)C)C(=O)[C@@H]13 (stereo not given in full)

>  <measurementTarget>
Alpha-bungarotoxin (Bungarus multicinctus)

>  <composite z-score>
-0.557

$$$$
>  <molecule>
COC(=O)c1c(CC[C@@H](CO)NC(=O)N[C@@H](C)Cn2cc(C3(O)CCCCC3)nn2)oc(C(C)=O)c1C(=O)OC

>  <measurementTarget>
Alpha-bungarotoxin (Bungarus multicinctus)

>  <composite z-score>
0.431

$$$$
>  <molecule>
CC(=O)n1cc(C(O)C2C=CC3C(=O)N(C)C(=O)C3N2Nc2ccccc2)c2ccccc21 (stereo not given)

>  <measurementTarget>
Alpha-bungarotoxin (Bungarus multicinctus)

>  <composite z-score>
1.18

$$$$
>  <molecule>
C[N+](C)(C)CCCC[C@@H]1NC(=O)[C@@H]2C[C@H](C(=O)NCCCCCN)[C@H](c3cccc(OCCO)c3)N2C1=O

>  <measurementTarget>
Alpha-bungarotoxin (Bungarus multicinctus)

>  <composite z-score>
0.932

$$$$
>  <molecule>
COCCOC(=O)N1C(=O)[C@@]2(c3cc(C#CC4=CCCCC4)ccc31)[C@H](C(=O)N1CCc3cc(OC)c(OC)cc3C1)[C@H]1C(=O)O[C@H](c3ccccc3)[C@H](c3ccccc3)N1[C@@H]2c1ccc(OCCO)cc1

>  <measurementTarget>
Alpha-bungarotoxin (Bungarus multicinctus)

>  <composite z-score>
1.07

$$$$
>  <molecule>
CC(C)c1ccc(NN2C(C(O)C(c3ccccc3)c3ccccc3)C=CC3C(=O)N(c4ccccc4)C(=O)C32)cc1 (stereo not given)

>  <measurementTarget>
Alpha-bungarotoxin (Bungarus multicinctus)

>  <composite z-score>
1.74

$$$$
